Attribution: ChEMBL document CHEMBL4184317

assay_target: Bromodomain testis-specific protein (Homo sapiens)
experiment_summary: Binding affinity to human partial length DNA-tagged BRDT isoform b BD1 expressed in bacterial by BROMOscan method
result_type: Kd (nM)

CC(=O)N1c2ccc(C3=CCNCC3)cc2N(Cc2ccccc2CO)C[C@@H]1C1CC1 1860

---

assay_target: Bromodomain and PHD finger-containing protein 3 (Homo sapiens, UniProt Q9ULD4)
Sequence (Q9ULD4 whole entry): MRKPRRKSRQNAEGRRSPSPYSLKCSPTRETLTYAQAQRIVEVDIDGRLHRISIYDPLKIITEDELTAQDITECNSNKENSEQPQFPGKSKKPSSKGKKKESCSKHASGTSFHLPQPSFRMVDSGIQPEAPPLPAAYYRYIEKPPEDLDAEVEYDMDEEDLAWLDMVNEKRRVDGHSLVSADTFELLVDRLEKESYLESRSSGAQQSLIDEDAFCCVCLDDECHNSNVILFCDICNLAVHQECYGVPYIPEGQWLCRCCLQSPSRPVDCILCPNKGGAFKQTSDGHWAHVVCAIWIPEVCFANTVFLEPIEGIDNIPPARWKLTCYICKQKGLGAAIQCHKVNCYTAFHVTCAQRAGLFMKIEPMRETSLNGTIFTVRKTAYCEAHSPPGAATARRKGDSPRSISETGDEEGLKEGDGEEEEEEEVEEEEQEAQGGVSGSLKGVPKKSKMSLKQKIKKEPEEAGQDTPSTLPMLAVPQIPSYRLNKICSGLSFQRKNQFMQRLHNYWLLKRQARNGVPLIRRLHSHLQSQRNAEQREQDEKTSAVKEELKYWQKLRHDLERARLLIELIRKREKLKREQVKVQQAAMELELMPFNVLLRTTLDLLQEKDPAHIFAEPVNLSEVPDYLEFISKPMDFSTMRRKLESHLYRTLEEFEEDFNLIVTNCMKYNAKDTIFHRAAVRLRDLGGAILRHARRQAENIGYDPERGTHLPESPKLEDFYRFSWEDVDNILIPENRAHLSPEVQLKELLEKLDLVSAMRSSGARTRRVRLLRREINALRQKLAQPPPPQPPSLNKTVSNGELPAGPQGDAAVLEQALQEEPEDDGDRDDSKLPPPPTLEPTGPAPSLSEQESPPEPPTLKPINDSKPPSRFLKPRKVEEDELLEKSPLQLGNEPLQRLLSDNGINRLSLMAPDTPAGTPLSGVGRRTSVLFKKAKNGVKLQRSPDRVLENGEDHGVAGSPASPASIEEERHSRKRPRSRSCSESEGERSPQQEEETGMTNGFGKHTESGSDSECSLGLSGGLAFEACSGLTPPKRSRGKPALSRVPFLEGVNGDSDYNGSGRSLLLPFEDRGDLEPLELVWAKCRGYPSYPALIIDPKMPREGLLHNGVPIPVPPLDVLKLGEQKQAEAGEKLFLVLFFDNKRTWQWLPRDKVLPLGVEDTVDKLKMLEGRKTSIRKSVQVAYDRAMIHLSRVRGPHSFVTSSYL
experiment_summary: Binding affinity to human partial length DNA-tagged BRPF3 expressed in bacteria by BROMOscan method
pKd: −log10 of the molar value.
result_type: pKd

CC(=O)N1c2ccc(C3=CCNCC3)cc2N(Cc2ccccc2CO)C[C@@H]1C1CC1 < 4.52

---

assay_target: Bromodomain-containing protein 9 (Homo sapiens)
Sequence (Q9H8M2 whole entry, canonical isoform): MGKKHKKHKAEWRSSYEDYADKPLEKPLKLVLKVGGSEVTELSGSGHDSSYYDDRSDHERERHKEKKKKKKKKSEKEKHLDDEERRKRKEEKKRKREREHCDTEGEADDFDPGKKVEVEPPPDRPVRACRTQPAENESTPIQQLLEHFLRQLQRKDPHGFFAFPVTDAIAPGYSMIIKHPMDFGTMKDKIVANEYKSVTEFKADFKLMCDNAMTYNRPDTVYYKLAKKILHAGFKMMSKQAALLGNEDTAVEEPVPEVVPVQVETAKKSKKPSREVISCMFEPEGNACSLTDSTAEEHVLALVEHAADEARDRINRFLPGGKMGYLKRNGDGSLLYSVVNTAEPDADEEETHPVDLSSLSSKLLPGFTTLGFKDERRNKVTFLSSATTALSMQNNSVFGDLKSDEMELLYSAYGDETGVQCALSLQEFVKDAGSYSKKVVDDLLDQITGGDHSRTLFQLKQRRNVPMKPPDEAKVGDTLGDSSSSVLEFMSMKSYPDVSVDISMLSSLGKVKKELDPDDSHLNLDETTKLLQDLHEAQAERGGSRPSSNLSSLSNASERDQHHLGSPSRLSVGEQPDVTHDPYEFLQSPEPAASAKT
experiment_summary: Binding affinity to human partial length DNA-tagged BRD9 isoform 1 expressed in bacteria by BROMOscan method
pKd: −log10 of the molar value.
result_type: pKd

CC(=O)N1c2ccc(C3=CCNCC3)cc2N(Cc2ccccc2CO)C[C@@H]1C1CC1 < 4.52
